Biological target: T1, soluble human CD3 epsilon chain (human, UniProt P07766 23-126)
T1 construct: also called CD3ε
T1 sequence (P07766 23-126 limits assumed): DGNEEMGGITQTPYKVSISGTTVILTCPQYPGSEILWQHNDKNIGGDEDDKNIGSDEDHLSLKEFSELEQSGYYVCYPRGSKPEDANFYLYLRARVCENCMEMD
Experiment: SPR
Readout: Kd (nM)

- Binder: "TR01H073-E22Hh/none-Hi-Kn010G3/L0000-k0 (antibody, V domains shown, one-arm) VH: QVQLVESGGGLVQPGRSLRLSCAASGFTFSNAWMHWVRQAPGKGLEWVAQIKDKSQNYATYYAESVKGRFTISRDDSKNSLYLQMNSLKTEDTAVYYCRYVHYAASYGVDIWGQGTTVTVSS VL: DIVMTQSPLSLPVTPGEPASISCRSSQSLVHSNRNTYLHWYQQKPGQAPRLLIYKVSNRFSGVPDRFSGSGSGTDFTLKISRVEAEDVGVYYCGQGTQVPYTFGQGTKLEIKR"
  Readout: "Kd"
  Reading Unit: "nM"
  Test Value: 59.7
- Binder: "TR01H084-E22Hh/none-Hi-Kn010G3/L0272-k0 (antibody, V domains shown, one-arm) VH: QVQLVESGGGVVQPGGSLRLSCAASGFTFSNAWMHWVRQAPGKGLEWVAQIKDKSQNYATYYAESVKGRFTISRADSKNSIYLQMNSLKTEDTAVYYCRYVHYAAGYGVDIWGQGTTVTVSS VL: DIVMTQSPLSLPVTPGEPASISCRSSQPLVHSNRQTYLHWYQQKPGQAPRLLIYKVSNRFSGVPDRFSGSGSGTDFTLKISRVEAEDVGVYYCGQGTQVPYTFGQGTKLEIK"
  Readout: "Kd"
  Reading Unit: "nM"
  Test Value: 31
- Binder: "TR01H104-E22Hh/none-Hi-Kn010G3/L0011-k0 (antibody, V domains shown, one-arm) VH: QVQLVESGGGLVQPGRSLRLSCAASGFTFSNAWMHWVRQAPGKGLEWVAQIKDKSQNYATYIAESVKGRFTISRDDSKNSLYLQMNSLKTEDTAVYYCRYVHYAAGYGVDAWGQGTTVTVSS VL: DIVMTQSPLSLPVTPGEPASISCRSSQPLVHSNRNTYLHWYQQKPGQAPRLLIYKVSNRFSGVPDRFSGSGSGTDFTLKISRVEAEDVGVYYCGQGTQVPYTFGQGTKLEIKR"
  Readout: "Kd"
  Reading Unit: "nM"
  Test Value: 82.6
